- Test system: HepG2
- method_description: Cytotoxicity against human HepG2 cells at 20 to 25 uM after 48 hrs by MTT assay
- Format: cell-based
- condition_set: hepg2, 48 h
Listed here are compounds together with their documented Activity.
outcome_measure: Activity (%)

> print(dat)
                                    compound  outcome.measure  numeric.readout
 1  O=C(NN1C(=O)CCSC1Cc1ccco1)c1ccncc1 (stereo unspecified)         Activity             18.6
 2  O=C(NN1C(=O)CCSC1c1ccccc1)c1ccncc1 (stereo unspecified)         Activity             10.6
 3  O=C(NN1C(=O)CCSC1c1cccc([N+](=O)[O-])c1)c1ccncc1 (stereo unspecified)         Activity             28.6
 4  COc1ccccc1C1SCCC(=O)N1NC(=O)c1ccncc1 (stereo unspecified)         Activity             15.2
 5  O=C(NN1C(=O)CCSC1c1ccccc1[N+](=O)[O-])c1ccncc1 (stereo unspecified)         Activity             28.8
 6  O=C(NN1C(=O)CCSC1c1ccccc1Cl)c1ccncc1 (stereo unspecified)         Activity             20.6
 7  O=C(NN1C(=O)CCSC1c1ccccc1OCc1ccccc1)c1ccncc1 (stereo unspecified)         Activity             10.6
 8  O=C(NN1C(=O)CCSC1c1ccc(F)cc1)c1ccncc1 (stereo unspecified)         Activity             18.6
 9  COc1cccc(C2SCCC(=O)N2NC(=O)c2ccncc2)c1 (stereo unspecified)         Activity             10.4
10  O=C(NN1C(=O)CCSC1c1ccc([N+](=O)[O-])cc1)c1ccncc1 (stereo unspecified)         Activity               32
11  CC(C)c1ccc(C2SCCC(=O)N2NC(=O)c2ccncc2)cc1 (stereo unspecified)         Activity               19

====

- method_description: Oral bioavailability in Wistar rat at 50 mg/kg administered as single dose
- Format: ADME, organism-based
- condition_set: Wistar, in vivo
outcome_measure: bioavailability (%)

> print(dat)
                                   compound  unit.of.measurement  numeric.readout
1  O=C(NN1C(=O)CCSC1c1ccc(OCc2ccccc2)cc1)c1ccncc1 (stereo unspecified)                    %             16.7

====

Listed here are compounds together with their documented Activity.
- System: HepG2
- method_description: Cytotoxicity against human HepG2 cells at 20 to 25 uM after 48 hrs by MTT assay
- Assay type: cell-based
- condition_set: hepg2, 48 h
outcome_measure: Activity (%)

> print(dat)
                                    compound  numeric.readout
 1  COc1ccc(C2SCCC(=O)N2NC(=O)c2ccncc2)cc1 (stereo unspecified)             12.6
 2  COc1cc(C2SCCC(=O)N2NC(=O)c2ccncc2)cc(OC)c1OC (stereo unspecified)              8.6
 3  O=C(NN1C(=O)CCSC1c1ccccc1C(F)(F)F)c1ccncc1 (stereo unspecified)             24.2
 4                           NNC(=O)c1ccncc1               10
 5  Cc1ccccc1C1SCCC(=O)N1NC(=O)c1ccncc1 (stereo unspecified)             12.6
 6  O=C(NN1C(=O)CCSC1c1cccc(F)c1)c1ccncc1 (stereo unspecified)             16.4
 7  Cc1ccc(C2SCCC(=O)N2NC(=O)c2ccncc2)cc1 (stereo unspecified)             12.4
 8  O=C(NN1C(=O)CCSC1c1cccc(C(F)(F)F)c1)c1ccncc1 (stereo unspecified)             26.4
 9  COc1cc(C2SCCC(=O)N2NC(=O)c2ccncc2)ccc1O (stereo unspecified)            16.11
10  Cc1cccc(C2SCCC(=O)N2NC(=O)c2ccncc2)c1 (stereo unspecified)              8.6
11  O=C(NN1C(=O)CCSC1c1ccccc1O)c1ccncc1 (stereo unspecified)              8.6
